- Tested on: NCI-H460 lung
- Protocol Description: NCI tumour cell line growth inhibition, 48 h
Endpoint: TGI

Consider the following illustrative entries.
[[record]]
compound = "C[C@H]1O[C@@H](c2c(O)ccc3ccccc23)C[C@@H](N(C)C)C1O (stereo partly drawn)"
recorded_result = "> 100 µM"

[[record]]
compound = "O=S(=O)(O)O.[NH-]C1CCCCC1[NH-].[Pt+2] (stereo not drawn)"
recorded_result = "> 100 µM"


// fetch NCI-H460 lung TGI for COC(=O)/C=C1/CCC2[C@@H](C(=O)CC3[C@]2(C)CCC[C@@]3(C)C(=O)OC)C1C (stereo partly drawn)
51.7 µM

What would you report for O=[N+]([O-])C(Cl)C(Cl)C(Cl)=C(Cl)Cl (stereo not drawn) ?
> 100 µM

Ok, now O=S(=O)(/C=C/c1ccc(Cl)cc1Cl)Cc1ccccc1CS(=O)(=O)/C=C/c1ccc(Cl)cc1Cl
> 100 µM

Same lookup for Cc1cc2c(cc1Cl)SC1=CC(=O)N(c3ccccc3)C1=NS2(=O)=O , please.
> 100 µM

Next record, please: COc1ccc(C(=O)OCC2OC(n3cnc4c(=S)nc[nH]c43)C(OC(=O)c3ccc(OC)cc3)C2OC(=O)c2ccc(OC)cc2)cc1 (stereo not drawn)
> 100 µM

Also need COc1cc(N(CCC#N)CCC#N)ccc1/C=C1\SC(=S)NC1=O , thanks.
> 100 µM

What would you report for CC[C@@H](C(=O)[C@@H](C)[C@@H](O)[C@H](C)[C@@H]1O[C@@H]([C@@H](CC)C(=O)O)CC[C@@H]1C)C1O[C@]2(C=CC(=O)[C@]3(CC[C@@](C)([C@H]4CC[C@](O)(CC)[C@H](C)O4)O3)O2)[C@H](C)C[C@@H]1C (stereo partly drawn) ?
11.3 µM

Try this compound next: CCc1n[nH]c(=S)n1/N=C\c1ccc(-c2ccccc2Cl)o1
> 100 µM

And O=C(Nc1ccccc1O)c1cccc(NC2=C(Cl)C(=O)N(Cc3ccccc3)C2=O)c1 ?
14.9 µM

###

- System: HOP-62 NSCLC
- Protocol Description: NCI tumour cell line growth inhibition, 48 h
Where a SMILES comes first, the peptide text is derived from it. The star is where a group is joined. Boc = CC(C)(C)OC(=O)*
Endpoint: TGI

The cases that follow already have their TGI on record.
[[record]]
molecule = "CC(NC(=O)C(NC(=O)OC(C)(C)C)C(C)C)C(=O)N1CCCC1C(=O)NCC(=O)NC(C(=O)NCC(=O)O)C(C)C (centres undefined) (Boc-VAPGVG-OH; configuration not given here)"
target_entity = "HOP-62 NSCLC"
recorded_result = "> 100 µM"

[[record]]
molecule = "COC(=O)CCCN(C)c1n[nH]c(N)n1"
target_entity = "HOP-62 NSCLC"
recorded_result = "> 100 µM"

[[record]]
molecule = "CC(C)=CC1C(COC(=O)c2cc3c(cc2Cl)OCO3)C1(C)C (centres undefined)"
target_entity = "HOP-62 NSCLC"
recorded_result = "> 100 µM"

[[record]]
molecule = "O=S1(=O)OCCOS(=O)(=O)C1I"
target_entity = "HOP-62 NSCLC"
recorded_result = "> 100 µM"


// lookup TGI for CCOC(=O)/C(O)=C(/c1n[nH]c(=O)c2ccccc12)[N+](=O)[O-]
> 100 µM

Try this molecule too: COc1ccc2nc(-c3cc(-c4cc(OC)c(OC)c(OC)c4)n[nH]3)[nH]c2c1
5.77 µM

Let us now turn to Cc1nc(C)c(C(=O)NNC(=O)Cc2ccccc2)cc1C(=O)NNC(=O)Cc1ccccc1
> 100 µM

Again, but for C=CCCCC1CCCNC1=O (centres undefined)
> 100 µM

Let us now turn to O=c1/c(=C/c2cccc([N+](=O)[O-])c2)sc2nc3ccccc3n12
> 100 µM

Consider next the molecule COc1cc(N(CCC#N)CCC#N)ccc1/C=C1\SC(=S)NC1=O in the same way.
> 100 µM

And what about the molecule CN(C)c1ccc(-c2cc(=O)c3cc4c(cc3[nH]2)OCO4)cc1 ?
> 100 µM

###

- Tested on: IGROV1 ovarian
- Protocol Description: NCI tumour cell line growth inhibition, 48 h
// reported TGI for each item listed

Here is how some molecules turned out for TGI.
[[record]]
molecule = "CCOC(=O)c1cc2c(ccc3cc(C(=O)OCC)[nH]c32)[nH]1"
endpoint = "TGI"
recorded_result = "> 100 µM"

[[record]]
molecule = "Cn1cncc1[C@@](N)(c1ccc(Cl)cc1)c1ccc2c(c1)c(-c1cccc(Cl)c1)cc(=O)n2C"
endpoint = "TGI"
recorded_result = "13 µM"

[[record]]
molecule = "CC1Cc2c(Br)nc(N)nc2NC1=O (stereo unspecified)"
endpoint = "TGI"
recorded_result = "> 100 µM"

[[record]]
molecule = "Cc1cc(NC(=S)Nc2ccccc2)c(NC(=S)Nc2ccccc2)cc1C"
endpoint = "TGI"
recorded_result = "> 100 µM"

[[record]]
molecule = "O=[N+]([O-])C(Cl)C(Cl)C(Cl)=C(Cl)Cl (stereo unspecified)"
endpoint = "TGI"
recorded_result = "18.3 µM"


As a next step, examine the molecule that follows.
Can you look up TGI on IGROV1 ovarian for CC(C)=CCC[C@H](C)[C@@H]1CC[C@]2(C)C3CC[C@]4(OC4(C)C)C(CCCO)[C@]3(C)CC[C@@]12C (stereo partly specified) ?
> 100 µM

###

- System: MDA-MB-231 breast
- Protocol Description: NCI tumour cell line growth inhibition, 48 h
Endpoint: TGI

Observe how each entry below is paired with its result.
[[record]]
compound = "CCOc1cccc(/C=N/NC(=O)c2ccc(Nc3ccnc(C(F)(F)F)c3)cc2)c1O"
target_entity = "MDA-MB-231 breast"
recorded_result = "> 100 µM"

[[record]]
compound = "COCc1nc2c(OC)cc(-c3nc4nc(N5CCN(C)CC5)ccc4[nH]3)c(OC)c2[nH]1"
target_entity = "MDA-MB-231 breast"
recorded_result = "> 100 µM"

[[record]]
compound = "COc1ccc(NC(=O)CC(=O)N2N=C(N3CCCCC3)CC2c2ccccc2)cc1 (stereo not drawn)"
target_entity = "MDA-MB-231 breast"
recorded_result = "> 100 µM"

[[record]]
compound = "CC(=O)C1C(=O)C(=O)N(c2cccc(C)c2C)C1=O (stereo not drawn)"
target_entity = "MDA-MB-231 breast"
recorded_result = "> 100 µM"

[[record]]
compound = "CC1=C(C(=O)Nc2ccc(F)c(Cl)c2)C(c2ccccc2Cl)NC(=S)N1 (stereo not drawn)"
target_entity = "MDA-MB-231 breast"
recorded_result = "> 50 µM"


Any idea what its TGI is? The compound is N#Cc1ccc(Oc2nc3ccccc3nc2-c2ccccc2)cc1
> 100 µM

Now consider O=C1CC(c2ccc(N3CCOCC3)cc2)(c2ccsc2)NC(=O)C1Sc1ccccc1Cl (stereo not drawn) and answer again.
> 100 µM

Lookup OC(c1nc2ccccc2s1)(C(F)(F)F)C(F)(F)F
> 100 µM

What do you get for CCOc1ccc(N=NC2C(=O)N(C(=O)CC(=O)Nc3ccccc3OC)N=C2C)cc1 (stereo not drawn) ?
> 51.7 µM

Follow-up item: O=C1CCCCC/C1=C\c1ccc(F)cc1
> 100 µM

Repeat for the following compound: CSc1c(C(=O)Nc2ccc(Cl)cc2)c(N)nn1-c1ccccc1
> 100 µM

###

- System: NCI-H23 lung
- Protocol Description: NCI tumour cell line growth inhibition, 48 h
Quick list: TGI per entry.

Some molecules with known TGI results, for comparison:
[[record]]
molecule = "CC1=NN(c2cccc(Cl)c2)C2(SCC(=O)N2c2nc3ccccc3s2)/C1=C\\c1ccc(Cl)cc1 (centres undefined)"
recorded_result = "41.5 µM"

[[record]]
molecule = "Nc1nc(N)c(N=O)c(Nc2ccc(O)cc2)n1"
recorded_result = "> 100 µM"

[[record]]
molecule = "CSC1=C(C(=O)Nc2ccc(Cl)cc2)C(N)=NC1=O"
recorded_result = "> 100 µM"

[[record]]
molecule = "CC(=O)C1C(=O)C(=O)N(c2cccc(C)c2C)C1=O (centres undefined)"
recorded_result = "> 100 µM"

[[record]]
molecule = "CC(C)(C)NC(C1=CC(C)(C)c2ccccc2C1=O)c1ccccc1 (centres undefined)"
recorded_result = "3.17 µM"

[[record]]
molecule = "CCOC(=O)/C(O)=C(/c1n[nH]c(=O)c2ccccc12)[N+](=O)[O-]"
recorded_result = "> 100 µM"

[[record]]
molecule = "O=C(/C=C(\\O)c1ccc(Cl)cc1)C(=O)N=Nc1c(O)[nH]c2ccc(Br)cc12"
recorded_result = "> 100 µM"

[[record]]
molecule = "CC1=C[C@H]2c3c(c(O)c(O)c4oc5c(C)cccc5c(=O)c34)[C@H](c3cc(O)c(O)c4oc5c(C)cccc5c(=O)c34)[C@H]2C(C)(C)C1"
recorded_result = "3.42 µM"


Name the recorded TGI for CN1C(=O)c2ccccc2NC(=O)c2cnn(C)c21 .
> 100 µM

Follow-up entry: N#Cc1c2ccc([N+](=O)[O-])cc2c(=O)n2c1sc1ccc(C(F)(F)F)cc12
> 100 µM

COc1ccc(C[C@@H]2Cc3cc(OC)c(OC)cc3CN2C)cc1 ?
> 100 µM

Query Cn1nccc1Nc1nccc(-c2cc3c(s2)C(C)(C)N(CCN2CCOCC2)C3=O)n1 next
> 100 µM

And the next one, COc1cc(C(=O)c2ccc3c(c2)OCO3)cc(OC)c1OC ?
> 100 µM

Further, for O=S1c2ccccc2N=C(c2ccc3ccccc3c2)CC1C1=CC=CCC1 (centres undefined) ?
30.6 µM

What do you have for O=C1CCCCC1CN1CCCC1 (centres undefined) ?
> 100 µM

What do you get for CCSc1nc(N)c2c(-c3ccc(OC)c(OC)c3)c3c(nc2n1)CCCC3 ?
> 100 µM

Here is the next molecule: O=c1cc(-c2ccccc2)[nH]c2cc(F)c(F)cc12
22.9 µM

// same read-out, input: COc1cc(OC)cc(Oc2nc3ccccc3nc2C(=O)O)c1
> 100 µM

Then what about the molecule CC(=O)O[C@H]1C(=O)[C@@]2(C)[C@H]([C@H](OC(=O)c3ccccc3)[C@]3(O)C[C@H](OC(=O)[C@H](OC(=O)OCCC(O)CO)[C@@H](NC(=O)c4ccccc4)c4ccccc4)C(C)=C1C3(C)C)[C@]1(OC(C)=O)CO[C@@H]1C[C@@H]2O (some centres undefined) ?
> 37 µM
